# system.name: N-cadherin expressed on transfected 3T3 cells
# assay.summary: cell-based or functional assay
reported.metric: percent inhibition of neurite outgrowth, peptide at 33 µg/ml (%)

binder="Ac-CIDPVNC-NH2 (not fully specified (bridges); printed as N-Ac-CIDPVNC-NH2; also: cyclic peptide, linkage not given here) [N-Ac-CIDPVNC-NH2]" quantity_unit=% experimental_result=40.6
binder="Ac-NLKIDPVNGQI-NH2 [N-Ac-NLKIDPVNGQI-NH2]" quantity_unit=% experimental_result=25.6
binder="Ac-WLKIDPVNGQI-NH2 [N-Ac-WLKIDPVNGQI-NH2]" quantity_unit=% experimental_result=19.8
binder="Ac-IDPVNGQ-NH2 [N-Ac-IDPVNGQ-NH2]" quantity_unit=% experimental_result=34.3
